- TESTED ON: T1, human ANGPTL3 (human, UniProt Q9Y5C1 17-460)
- T1 construct: Biotinylated in the ELISA assays; also called hANGPTL3; free ANGPTL3
- T1 sequence: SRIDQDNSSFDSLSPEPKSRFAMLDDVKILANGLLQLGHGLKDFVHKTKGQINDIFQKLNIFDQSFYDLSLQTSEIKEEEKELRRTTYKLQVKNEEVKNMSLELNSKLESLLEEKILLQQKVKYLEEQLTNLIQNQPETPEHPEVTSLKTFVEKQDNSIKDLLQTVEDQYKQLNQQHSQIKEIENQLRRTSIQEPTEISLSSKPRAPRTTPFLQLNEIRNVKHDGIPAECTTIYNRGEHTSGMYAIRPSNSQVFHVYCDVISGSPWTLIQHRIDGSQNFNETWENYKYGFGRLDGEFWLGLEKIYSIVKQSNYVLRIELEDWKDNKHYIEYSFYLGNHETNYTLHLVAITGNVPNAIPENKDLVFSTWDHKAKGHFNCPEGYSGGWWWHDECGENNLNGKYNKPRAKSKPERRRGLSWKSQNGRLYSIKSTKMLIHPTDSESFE
- MEASUREMENT PROTOCOL: single point ELISA; IgG captured by anti-human Fc; biotinylated antigen at 25 nM
OD at 560 nm values for the binders below.
Your answer is read as OD 560 nm, so omit the unit and give the number.

Examples with answers:
BINDER: Ab with LC variant having a M56T mutation (SEQ ID NO:24) and a HC of SEQ ID NO:6 (antibody, human IgG4 S228P, kappa, F234A L235A, V domains shown) VH: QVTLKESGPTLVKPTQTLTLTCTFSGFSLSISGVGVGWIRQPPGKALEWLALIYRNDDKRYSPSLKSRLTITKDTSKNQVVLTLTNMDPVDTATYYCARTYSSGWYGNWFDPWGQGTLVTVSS VL: DIVMTQTPLSLPVTPGEPASISCRSSQSLLDSDDGNTYLDWYLQKPGQSPQLLIYTLSYRASGVPDRFSGSGSGTDFTLKISRVEAEDVGIYYCMQRIEFPLTFGGGTKVEIKR
OD at 560 nm, OD 560 nm: 0.06

BINDER: anti-ANGPTL3/8 complex Ab having a LC of SEQ ID NO:5 and a HC of SEQ ID NO:6 (antibody, human IgG4 S228P, kappa, F234A L235A, V domains shown, In the ELISA assays tested as IgG from CHO supernatants; also called the Ab) VH: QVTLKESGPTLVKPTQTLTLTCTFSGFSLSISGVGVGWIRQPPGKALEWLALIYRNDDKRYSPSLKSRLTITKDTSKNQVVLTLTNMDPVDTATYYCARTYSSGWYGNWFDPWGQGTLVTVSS VL: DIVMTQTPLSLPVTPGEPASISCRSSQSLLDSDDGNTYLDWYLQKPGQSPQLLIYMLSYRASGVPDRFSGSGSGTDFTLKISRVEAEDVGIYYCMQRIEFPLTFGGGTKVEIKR
OD at 560 nm, OD 560 nm: 0.074

BINDER: Ab with LC variant having a E99Q mutation (SEQ ID NO:25) and a HC of SEQ ID NO:6 (antibody, human IgG4 S228P, kappa, F234A L235A, V domains shown, also called E99Q Variant Ab; E99Q Ab) VH: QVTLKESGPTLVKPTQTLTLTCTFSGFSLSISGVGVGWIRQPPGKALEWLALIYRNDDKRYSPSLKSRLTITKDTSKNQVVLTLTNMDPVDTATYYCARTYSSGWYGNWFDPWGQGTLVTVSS VL: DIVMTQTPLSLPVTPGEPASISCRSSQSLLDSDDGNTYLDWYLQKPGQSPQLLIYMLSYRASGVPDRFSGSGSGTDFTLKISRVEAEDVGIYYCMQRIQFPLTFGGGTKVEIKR
OD at 560 nm, OD 560 nm: 0.083

BINDER: Ab with LC variant having a D31S mutation (SEQ ID NO:21) and a HC of SEQ ID NO:6 (antibody, human IgG4 S228P, kappa, F234A L235A, V domains shown, also called D31S Variant Ab; D31S Ab) VH: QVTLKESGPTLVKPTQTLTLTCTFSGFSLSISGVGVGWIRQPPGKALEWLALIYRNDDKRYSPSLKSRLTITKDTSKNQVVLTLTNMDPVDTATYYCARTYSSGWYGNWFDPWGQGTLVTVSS VL: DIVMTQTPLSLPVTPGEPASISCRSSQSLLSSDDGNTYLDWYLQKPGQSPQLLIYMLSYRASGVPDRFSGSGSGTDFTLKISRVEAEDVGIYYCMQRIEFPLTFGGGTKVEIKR
OD at 560 nm, OD 560 nm: 0.058

Input line: Need OD at 560 nm of Ab with LC variant having a D33A mutation (SEQ ID NO:22) and a HC of SEQ ID NO:6 (antibody, human IgG4 S228P, kappa, F234A L235A, V domains shown, also called D33A Variant Ab; D33A Ab) VH: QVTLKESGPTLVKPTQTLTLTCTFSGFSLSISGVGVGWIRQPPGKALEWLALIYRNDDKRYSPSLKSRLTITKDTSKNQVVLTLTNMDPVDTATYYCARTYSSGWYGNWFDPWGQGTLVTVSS VL: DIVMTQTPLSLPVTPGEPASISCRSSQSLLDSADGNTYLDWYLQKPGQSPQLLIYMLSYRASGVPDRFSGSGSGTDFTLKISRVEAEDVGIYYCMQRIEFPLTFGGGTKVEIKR , thanks.
Output line: 0.076

Input line: Tell me the measured OD at 560 nm of Ab with LC variant having a D33T mutation (SEQ ID NO:23) and a HC of SEQ ID NO:6 (antibody, human IgG4 S228P, kappa, F234A L235A, V domains shown, also called D33T Ab) VH: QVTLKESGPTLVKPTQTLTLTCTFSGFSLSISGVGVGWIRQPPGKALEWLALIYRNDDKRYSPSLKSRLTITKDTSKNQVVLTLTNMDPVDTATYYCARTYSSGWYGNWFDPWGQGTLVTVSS VL: DIVMTQTPLSLPVTPGEPASISCRSSQSLLDSTDGNTYLDWYLQKPGQSPQLLIYMLSYRASGVPDRFSGSGSGTDFTLKISRVEAEDVGIYYCMQRIEFPLTFGGGTKVEIKR , please.
Output line: 0.06
